Target: HLA-B*0801 (human)
Assay: iTopia net score
parameter: iScore
Answers are plain numbers.

Worked examples follow.
1. ALKVKYEEL [cdr2 355-363 ALKVKYEEL]	0.099
2. LSLERQKRV [cdr2 209-217 LSLERQKRV]	0.046
3. EQRTKYRSL [cdr2 442-450 EQRTKYRSL]	0.16

I'm hoping you can list iScore for every binder here, please.
1. TGAYRARAL [cdr2 240-248 TGAYRARAL]
2. TLLDRNTEL [cdr2 37-45 TLLDRNTEL]
3. EHLKKTVTM [cdr2 196-204 EHLKKTVTM]
4. HLKKTVTML [cdr2 197-205 HLKKTVTML]
5. AVKQRGISL [cdr2 337-345 AVKQRGISL]

1: 0.085; 2: 0.045; 3: 0.065; 4: 0.123; 5: 0.139

Provide iScore values for the following items, in order.
1. AYRARALEL [cdr2 242-250 AYRARALEL]
2. LERQKRVTM [cdr2 211-219 LERQKRVTM]
3. CIKKTKQEI [cdr2 432-440 CIKKTKQEI]
4. ELYDLRQHF [cdr2 163-171 ELYDLRQHF]

0.066
0.037
0.054
0.037

Cited source: patent US20090208538A1
